// data source = PubChem BioAssay AID2284334

biological target: human Peroxisome Proliferator-activated Receptor alpha (PPARa), PPARA (gene 5465); experiment: ATG_hPPARa_EcoTox2: Attagene TRANS-FACTORIAL EcoTox-2 HepG2 Assay for human Peroxisome Proliferator-activated Receptor alpha (PPARa)
Results filed as inconclusive are left out. Calls of active or inactive are those of the source. Rule for the calls: active = hit-call score of the fitted dose curve at least 0.9, where 1 is the maximum; inconclusive = response in the unintended direction; inactive = score below 0.9.
Assign a class; possible classes are active, inactive

CC(c1cc2ccccc2s1)N(O)C(N)=O (centres undefined)	inactive

Identify the outcome logged in this assay for the compound shown: `C[C@@H]1C[C@H]2[C@@H]3CCC4=CC(=O)C=C[C@]4(C)[C@@]3(F)[C@@H](O)C[C@]2(C)[C@@]1(O)C(=O)COP(=O)(O)O` inactive

Could you please tell me the result logged for `C[C@]12C=CC(=O)C=C1CC[C@@H]1[C@@H]2C(=O)C[C@@]2(C)[C@H]1CC[C@]2(O)C(=O)CO` in this assay? inactive

Recorded call for `CC(C)(Oc1ccc(Cl)cc1)C(=O)O` ? active
